assay: CCTE_Shafer_MEA_dev_per_network_spike_spike_percent: CCTE's Neural Network Formation Assay for Percent of Spikes in a Network Spike, Shafer Lab (AID 2284054)
Active and inactive are the calls of the source. The calls were made as follows: active = hit-call score of the fitted dose curve at least 0.9, where 1 is the maximum; inactive = score below 0.9.
Output constraint: value belongs to active, inactive

Consider the following illustrative entries.
[[record]]
molecule = "Cc1ccc(-c2c(Cl)nc(C#N)n2S(=O)(=O)N(C)C)cc1"
answer_label = "inactive"

[[record]]
molecule = "N#Cc1nn(-c2c(Cl)cc(C(F)(F)F)cc2Cl)c(N)c1S(=O)C(F)(F)F (stereo unspecified)"
answer_label = "active"

[[record]]
molecule = "COc1ccc(C(c2ccc(OC)cc2)C(Cl)(Cl)Cl)cc1"
answer_label = "active"

[[record]]
molecule = "CCCCNC(=O)n1c(NC(=O)OC)nc2ccccc21"
answer_label = "inactive"

[[record]]
molecule = "CC(C)(C)c1ccc(CSc2cnn(C(C)(C)C)c(=O)c2Cl)cc1"
answer_label = "active"


Consider the additional molecule presented here.
Any idea what this test logged for CCOc1cc(Oc2ccc(C(F)(F)F)cc2Cl)ccc1[N+](=O)[O-] ?
active

----------
test system: turtle Androgen Receptor (AR), gene 101947425; assay: ATG_trAR_XSP1: Attagene TRANS-FACTORIAL Multi-Species (XSP1) HepG2 Assay for turtle Androgen Receptor (AR) (AID 2283786)
Records with an inconclusive call do not appear. Activity calls are given as the source filed them. The calls were made as follows: active = hit-call score of the fitted dose curve at least 0.9, where 1 is the maximum; inconclusive = response in the unintended direction; inactive = score below 0.9.
Output constraint: value belongs to active, inactive

[[record]]
compound = "C#CCOS(=O)OC1CCCCC1Oc1ccc(C(C)(C)C)cc1 (centres undefined)"
system_tested = "turtle Androgen Receptor (AR), gene 101947425"
answer_label = "active"

[[record]]
compound = "CC(C)Oc1cc(-n2nc(C(C)(C)C)oc2=O)c(Cl)cc1Cl"
system_tested = "turtle Androgen Receptor (AR), gene 101947425"
answer_label = "inactive"

[[record]]
compound = "CCCN(CCC)c1c([N+](=O)[O-])cc(S(N)(=O)=O)cc1[N+](=O)[O-]"
system_tested = "turtle Androgen Receptor (AR), gene 101947425"
answer_label = "inactive"


Consider the additional compound presented here.
Any idea what this test logged for COP(=S)(OC)Oc1nc(Cl)c(Cl)cc1Cl ?
active

----------
read-out: Interleukin-1 alpha (IL1a), IL1A (gene 3552); assay: BSK_KF3CT_IL1a: BioMAP Diversity Plus: KF3CT Assay for Interleukin-1 alpha (IL1a) Biomarker Activity (AID 2283070); details: primary human keratinocytes with fibroblasts; actives raise or lower the signal
The source made the active and inactive calls. Rule for the calls: active = hit-call score of the fitted dose curve at least 0.9, where 1 is the maximum; inactive = score below 0.9.
Output constraint: value belongs to Y (active), N (inactive)

Consider the following illustrative entries.
[[record]]
molecule = "CS/C(C)=N/OC(=O)N(C)SN(C)C(=O)O/N=C(\\C)SC"
answer_label = "Y"

[[record]]
molecule = "O=C(O)COc1nc(Cl)c(Cl)cc1Cl"
answer_label = "N"

[[record]]
molecule = "CCOC(=O)CC(SP(=S)(OC)OC)C(=O)OCC (configuration not stated)"
answer_label = "N"

[[record]]
molecule = "Oc1ccccc1-c1ccccc1"
answer_label = "N"

[[record]]
molecule = "CCNc1nc(Cl)nc(NCC)n1"
answer_label = "N"

[[record]]
molecule = "CCc1nn(C)c(C(=O)NCc2ccc(C(C)(C)C)cc2)c1Cl"
answer_label = "Y"


Consider the additional molecule presented here.
Any idea what this test logged for Cc1ccc(-c2c(Cl)nc(C#N)n2S(=O)(=O)N(C)C)cc1 ?
N

All values here come from PubChem BioAssay (EPA / NIEHS).
